- experimentalSystem: Human serotonin 5-HT6 receptor (Homo sapiens, UniProt P50406)
- Construct: made in house; host or cells: insect Sf21 cells (baculovirus vector BacPAK8)
- Sequence (P50406 whole entry): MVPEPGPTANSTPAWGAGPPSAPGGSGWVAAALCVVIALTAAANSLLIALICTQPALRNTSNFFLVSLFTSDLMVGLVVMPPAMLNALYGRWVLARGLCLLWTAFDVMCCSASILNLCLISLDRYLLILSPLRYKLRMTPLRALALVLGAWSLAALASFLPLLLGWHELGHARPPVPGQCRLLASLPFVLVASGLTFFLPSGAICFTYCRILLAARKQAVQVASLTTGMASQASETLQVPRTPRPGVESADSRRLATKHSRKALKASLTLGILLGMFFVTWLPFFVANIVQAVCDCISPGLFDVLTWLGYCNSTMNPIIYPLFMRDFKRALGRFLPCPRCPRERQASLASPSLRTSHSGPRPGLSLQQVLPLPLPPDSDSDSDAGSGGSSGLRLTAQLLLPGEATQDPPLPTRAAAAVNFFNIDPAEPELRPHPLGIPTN
- testSummary: [3H]LSD binding assay on cloned 5-HT6 receptor membranes
- cond: Table 2; 1.87 nM [3H]LSD, 37 C, 60 min; read-out: IC50 (nM), binding affinity to the 5-HT6 receptor
assayEndpoint: IC50
Answer with the value and then the unit.

COc1ccc(CN2C(=O)C(C)(c3ccc(OC)cc3)C(=O)c3c(N4CCNCC4)cc(Cl)cc32)cc1 (stereo not shown) : 26.5 nM
CC1(c2ccc(O)cc2)C(=O)c2c(N3CCNCC3)cc(Cl)cc2N(Cc2cccnc2)C1=O (stereo not shown) : 30.6 nM
COc1ccc(C2(C)C(=O)c3c(N4CCNCC4)cc(Cl)cc3N(Cc3ccc4ccccc4c3)C2=O)cc1 (stereo not shown) : 4.7 nM
COc1ccc(C2(C)C(=O)c3c(N4CCNCC4)cc(Cl)cc3N(CC3CCCCC3)C2=O)cc1 (stereo not shown) : 251 nM
CC1(c2ccc(O)cc2)C(=O)c2c(N3CCNCC3)cc(Cl)cc2N(Cc2ccc3ccccc3c2)C1=O (stereo not shown) : 55.7 nM
CN1CCN(c2cc(Cl)cc3c2C(=O)C(C)(c2ccc([N+](=O)[O-])cc2)C(=O)N3Cc2ccccc2)CC1 (stereo not shown) : 4.7 nM

Could I get IC50 for every one of these entries?
1. CC1(c2ccc(O)cc2)C(=O)c2c(N3CCNCC3)cc(Cl)cc2N(Cc2ccccc2O)C1=O (stereo not shown)
2. COc1ccc(C2(C)C(=O)c3c(N4CCNCC4)cc(Cl)cc3N(Cc3cccc(Br)c3)C2=O)cc1 (stereo not shown)
3. CN1CCN(c2cc(Cl)cc3c2C(=O)C(C)(c2ccc(O)cc2)C(=O)N3Cc2cccc([N+](=O)[O-])c2)CC1 (stereo not shown)
4. CC1(c2ccc(Cl)cc2)C(=O)c2c(N3CCNCC3)cc(Cl)cc2N(Cc2ccccc2)C1=O (stereo not shown)
5. COc1ccc(C2(C)C(=O)c3c(N4CCNCC4)cc(Cl)cc3N(Cc3nc4ccccc4[nH]3)C2=O)cc1 (stereo not shown)
6. C[C@]1(c2ccc(O)cc2)C(=O)c2c(N3CCNCC3)cc(Cl)cc2N(Cc2ccccc2)C1=O

[reply]
15.9 nM
1.8 nM
23.8 nM
2.3 nM
137 nM
1.9 nM
